The reported numbers originate from patent US20260151413A1.

test system: MUTZ5; experiment: WST-1 proliferation assay, MUTZ5; type: cell-based, human; settings: Homo sapiens; WST-1, 48 hours of treatment
measured-attribute: pIC50
Note on pIC50: it is the negative log10 of concentration, concentration in mol/L.

compound COC(=O)N(C)/N=N/c1ccc(CNC2CC(OC3CC(O)(C(=O)CO)Cc4c(O)c5c(c(O)c43)C(=O)c3c(OC)cccc3C5=O)OC(C)C2O)cc1 (stereo not shown) [Chimera 9] , pIC50 observed: 6.28

----------
test system: MHH-CALL4; experiment: WST-1 proliferation assay, MHH-CALL4; format: cell-based, human; conditions: WST-1, 48 hours of treatment
log10(IC50) listing for selected compounds.
Base-10 log of IC50, unit µM.

These solved cases illustrate the format of a correct answer.
COC(=O)N(C)/N=N/c1ccc(Cn2cc(F)c(=O)[nH]c2=O)cc1    1.51
COC(=O)N(C)/N=N/c1ccc(COc2cc(/C=C\c3cc(OC)c(OC)c(OC)c3)ccc2OC)cc1    1.33

# ---- query compound ----
compound COC(=O)N(C)/N=N/c1ccc(CNc2cccc3c2CN(C2CCC(=O)NC2=O)C3=O)cc1 (centres unmarked) , log10(IC50) observed: 1.38

----------
tested on: MHH-CALL4; assay: WST-1 proliferation assay, MHH-CALL4; format: cell-based, human; details: WST-1, 48 hours of treatment
measured-attribute: pIC50
Note on pIC50: it is the negative log10 of concentration, concentration in mol/L.

COC(=O)N(C)/N=N/c1ccc(CSc2ncnc3nc[nH]c23)cc1    4.78
CCc1c2c(nc3ccc(OCc4ccc(N=NN(C)C(=O)OC)cc4)cc13)-c1cc3c(c(=O)n1C2)COC(=O)C3(O)CC (centres unmarked)    5.92
COC(=O)N(C)/N=N/c1ccc(CNc2nc3ccc(OC(F)(F)F)cc3s2)cc1    5.28

# ---- query compound ----
pIC50 of "COC(=O)N(C)/N=N/c1ccc(CNc2cc3c4c(cccc4c2)C(=O)N(CCN(C)C)C3=O)cc1" , assay on MHH-CALL4, is 4.44
